The measurements presented in this section are drawn from paper PMC9416004.

system: HCoV-229E; assay: Cytopathic effect (CPE) reduction assay with HCoV-229E in HEL cells; assay type: cell-based, human coronavirus 229E; settings: Human coronavirus 229E, 120 h; HCoV-229E-infected HEL cells; protection against virus-induced CPE by MTS cell viability assay; five days at 35 °C; read-out: Antiviral EC50 MTS
The entries below come with measured pEC50 values attached.
Note: pEC50 values are expressed as the negative base-10 logarithm of concentration in M.

molecule="COC(=O)CCC(=O)N(Cc1ccc(F)cc1)C1(C(=O)NCc2ccccc2)CCN(Cc2ccccc2)CC1 [Compound 30]" experimental_value=4.89

Continue with the next molecule.
State its pEC50: COC(=O)C[C@H](NC(=O)OC(C)(C)C)C(=O)N(Cc1ccc(F)cc1)C1(C(=O)NC(C)(C)C)CCN(Cc2ccccc2)CC1 [Compound 12]
4.96

###

system: human embryonic lung (HEL) fibroblast cells; conditions: mock-infected HEL cells; microscopically visible alterations in cell morphology
The entries below come with measured Cytotoxicity MCC (minimal cytotoxic concentration) values attached.

Previously resolved entries follow.
compound="COc1ccc(CC(NC(=O)OC(C)(C)C)C(=O)N(Cc2ccccc2)C2(C(=O)NCc3ccccc3)CCN(Cc3ccccc3)CC2)cc1 (stereo not drawn)" system_under_test="human embryonic lung (HEL) fibroblast cells" experimental_value="≥100 µM"
compound=COC(=O)C[C@H](NC(=O)OC(C)(C)C)C(=O)NC1(C(=O)NCc2ccccc2)CCN(Cc2ccccc2)CC1 system_under_test="human embryonic lung (HEL) fibroblast cells" experimental_value="≥100 µM"
compound=COC(=O)C[C@H](NC(=O)OC(C)(C)C)C(=O)N(Cc1ccc(F)cc1)C1(C(=O)NCc2ccccc2)CCN(C)CC1 system_under_test="human embryonic lung (HEL) fibroblast cells" experimental_value=">100 µM"
compound=COC(=O)C[C@H](NC(=O)OC(C)(C)C)C(=O)N(Cc1ccc(F)cc1)C1(C(=O)NC(C)(C)C)CCN(Cc2ccccc2)CC1 system_under_test="human embryonic lung (HEL) fibroblast cells" experimental_value="≥100 µM"

Continue with the next compound.
State its Cytotoxicity MCC (minimal cytotoxic concentration): COC(=O)C[C@H](NC(=O)OC(C)(C)C)C(=O)N(Cc1ccc(F)cc1)C1(C(=O)NCc2ccccc2)CCN(c2ccccc2)CC1
>100 µM

###

The entries below come with measured EC50 values attached.
test system: HCoV-229E; assay: Cytopathic effect (CPE) reduction assay with HCoV-229E in HEL cells; type: cell-based, human coronavirus 229E; settings: Human coronavirus 229E, 120 h; HCoV-229E-infected HEL cells; protection against virus-induced CPE by MTS cell viability assay; five days at 35 °C; read-out: Antiviral EC50 MTS

compound=COC(=O)C[C@H](NC(=O)OC(C)(C)C)C(=O)N(C)C1(C(=O)NCc2ccccc2)CCN(Cc2ccccc2)CC1 experimental_readout=EC50 experimental_value="> 100 µM"
compound="COC(=O)C[C@H](NC(=O)OC(C)(C)C)C(=O)N(Cc1ccc(F)cc1)C1(C(=O)NCc2ccccc2)CC[N+](C)(Cc2ccccc2)CC1 (stereo partly drawn)" experimental_readout=EC50 experimental_value="> 100 µM"
compound=COC(=O)C[C@H](NC(=O)OC(C)(C)C)C(=O)N(CCNc1ccccc1)C1(C(=O)NCc2ccccc2)CCN(Cc2ccccc2)CC1 experimental_readout=EC50 experimental_value="3.2 µM"
compound=CC(C)(C)OC(=O)N[C@@H](Cc1ccc(O)cc1)C(=O)N(Cc1ccccc1)C1(C(=O)NCc2ccccc2)CCN(Cc2ccccc2)CC1 experimental_readout=EC50 experimental_value="9.3 µM"
compound="CCC(C)N(C(=O)[C@H](CC(=O)OC)NC(=O)OC(C)(C)C)C1(C(=O)NCc2ccccc2)CCN(Cc2ccccc2)CC1 (stereo partly drawn)" experimental_readout=EC50 experimental_value="13 µM"

State its EC50: COC(=O)C[C@H](NC(=O)OCC1c2ccccc2-c2ccccc21)C(=O)N(Cc1ccccc1)C1(C(=O)NCc2ccccc2)CCN(Cc2ccccc2)CC1
26 µM
